Each recorded value in this set is attributed to patent US20120316071A1.

We begin with a simple list: items and their reported ECL signal/blank ratio (read-out not given).
# assayedTarget: T1, rHuman P-Cadherin/Fc Chimera, CF (R&D Systems Cat#861-PC) (human, UniProt P22223 108-654)
# T1 construct: Bought recombinant protein; Fc part of the bought chimera not given
# experimentalDetails: ECL multispot (MSD) assay, antigen spotted on plate, 20 nM Fab;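 also: purified Fab bound to plate-spotted antigen for 1 h at 20 °C, labelled detection antibody added, ratio of antigen ECL signal to same-well blank, ratio ≥4 counted as binder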
# output: bare number, no unit

Worked cases, answers included:
binder: Fab VH3-23_IGHD2-21*01>3_IGHJ6*01 H100E/S108P/Y113G D62A & V2-13_IGLJ2*01 (Fab, V domains shown, Tested as a Fab made in E. coli; also called EPG D62A) VH: EVQLLESGGGLVQPGGSLRLSCAASGFTFSSYAMSWVRQAPGKGLEWVSSISGSGGSTYYAASVKGRFTISRDNSKNTLYLQMNSLRAEDTAVYYCAKEEIVVVIAIPYYYYGYGMDVWGQGTLVTVSS VL: SSELTQDPAVSVALGQTVRITCQGDSLRSYYASWYQQKPGQAPVLVIYGKNNRPSGIPDRFSGSSSGNTASLTITGAQAEDEADYYCNSRDSSGNHLVVFGGGTKLTVL
result: 45.8
--
binder: Fab VH3-23_IGHD2-21*01>3_IGHJ6*01 H100E/S108P/Y113G Y60A & V2-13_IGLJ2*01 (Fab, V domains shown, Tested as a Fab made in E. coli; also called EPG Y60A) VH: EVQLLESGGGLVQPGGSLRLSCAASGFTFSSYAMSWVRQAPGKGLEWVSSISGSGGSTYAADSVKGRFTISRDNSKNTLYLQMNSLRAEDTAVYYCAKEEIVVVIAIPYYYYGYGMDVWGQGTLVTVSS VL: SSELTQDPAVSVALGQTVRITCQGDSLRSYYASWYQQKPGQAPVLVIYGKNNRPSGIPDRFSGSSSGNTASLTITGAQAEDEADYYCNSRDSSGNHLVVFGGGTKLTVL
result: 25.3
--
binder: Fab VH3-23_IGHD2-21*01>3_IGHJ6*01 H100E/S108P/Y113G T58A & V2-13_IGLJ2*01 (Fab, V domains shown, Tested as a Fab made in E. coli; also called EPG T58A) VH: EVQLLESGGGLVQPGGSLRLSCAASGFTFSSYAMSWVRQAPGKGLEWVSSISGSGGSAYYADSVKGRFTISRDNSKNTLYLQMNSLRAEDTAVYYCAKEEIVVVIAIPYYYYGYGMDVWGQGTLVTVSS VL: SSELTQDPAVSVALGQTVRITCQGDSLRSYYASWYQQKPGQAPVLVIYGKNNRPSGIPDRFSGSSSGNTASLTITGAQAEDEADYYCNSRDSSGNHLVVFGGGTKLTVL
result: 36.9

[ask] // ECL signal/blank ratio (read-out not given) lookup, key: Fab VH3-23_IGHD2-21*01>3_IGHJ6*01 H100E/S108P/Y113G Y59A & V2-13_IGLJ2*01 (Fab, V domains shown, Tested as a Fab made in E. coli; also called EPG Y59A) VH: EVQLLESGGGLVQPGGSLRLSCAASGFTFSSYAMSWVRQAPGKGLEWVSSISGSGGSTAYADSVKGRFTISRDNSKNTLYLQMNSLRAEDTAVYYCAKEEIVVVIAIPYYYYGYGMDVWGQGTLVTVSS VL: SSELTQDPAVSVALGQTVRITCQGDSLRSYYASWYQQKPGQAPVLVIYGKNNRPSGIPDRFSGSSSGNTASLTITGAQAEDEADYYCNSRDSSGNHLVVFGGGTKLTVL
[reply] 2.4
